System: DIPGX7 (H3.3 K27M diffuse intrinsic pontine glioma line)
Test: growth inhibition (% activity, log2 RLU normalised to DMSO / staurosporine); higher = more growth inhibition
Conditions: 33 µM
measurement_kind: growth inhibition (%)
Respond with the bare value in %.

# example entries with known answers
CCCCC[C@H](O)/C=C/[C@H]1[C@H](O)CC(=O)[C@@H]1CCCCCCC(=O)O ... 1.87
CN(C)CCc1c[nH]c2ccc(CS(=O)(=O)N3CCCC3)cc12 ... 1.45
Nc1c(CC(=O)O)cccc1C(=O)c1ccccc1 ... -0.79
Nc1ccc(S(=O)(=O)Nc2nccs2)cc1 ... -1.25
CS(=O)(=O)OCCCCOS(C)(=O)=O ... 1.75

**Query** Quick one: give measured growth inhibition for CC1OC(n2cc(F)c(=O)[nH]c2=O)C(O)C1O (stereo unspecified)
**Result** -1.58
